Biological target: human muscarinic M4 receptor (Homo sapiens)
Construct: expressed in transfected cells
Assay: Alphascreen Surefire phospho-ERK1/2 functional assay, M4
Type: cell-based
Details: CHO cells stably expressing human M4; agonist 5 min, 37° C.; read-out: pEC50 M4 (converted)
Metric: EC50 (nM)

Reference set (5 entries):
1. CCOC(=O)N1CCCC(N2CCC(C(=NOC)NCC(C)C)CC2)CC1 (racemic) [3-1 Mixture of isomers]; 398
2. CCOC(=O)N1CCCC(N2CCC(C(=NOC)C(C)C)CC2)CC1 (single isomer, unassigned) [1-4 Isomer 2 (racemic)]; 31.6
3. CCCC(=NOC)C1CCN([C@H]2CCCN(C(=O)OCC)CC2)CC1 (single isomer, unassigned) [(S)-1-3 Isomer 2]; 25.1
4. CCOC(=O)N1CCCC(N2CCC(C(CC)=NOC(C)C)CC2)CC1 (single isomer, unassigned) [1-12 Isomer 1 (racemic)]; 63.1
5. CCOC(=O)N1CCCC(N2CCC(C(C#N)=NOC(C)C)CC2)CC1 (mixture of isomers) [4-1 Mixture of isomers]; 79.4

(P) CCOC(=O)N1CCCC(N2CCC(C(CC)=NOC(C)C)CC2)CC1 (single isomer, unassigned) [1-12 Isomer 2 (racemic)]
(Q) CCOC(=O)N1CCCC(N2CCC(C(=NOC)C(C)C)CC2)CC1 (single isomer, unassigned) [1-4 Isomer 1 (racemic)]
[ask] Which one would you say has the larger EC50 value: P , or Q ? Reply with the label of the item you choose.
[reply] Q
(Q: 50.1 nM, P: 25.1 nM)

* * *

Target: UniProt P11229
Sequence (P11229 whole entry): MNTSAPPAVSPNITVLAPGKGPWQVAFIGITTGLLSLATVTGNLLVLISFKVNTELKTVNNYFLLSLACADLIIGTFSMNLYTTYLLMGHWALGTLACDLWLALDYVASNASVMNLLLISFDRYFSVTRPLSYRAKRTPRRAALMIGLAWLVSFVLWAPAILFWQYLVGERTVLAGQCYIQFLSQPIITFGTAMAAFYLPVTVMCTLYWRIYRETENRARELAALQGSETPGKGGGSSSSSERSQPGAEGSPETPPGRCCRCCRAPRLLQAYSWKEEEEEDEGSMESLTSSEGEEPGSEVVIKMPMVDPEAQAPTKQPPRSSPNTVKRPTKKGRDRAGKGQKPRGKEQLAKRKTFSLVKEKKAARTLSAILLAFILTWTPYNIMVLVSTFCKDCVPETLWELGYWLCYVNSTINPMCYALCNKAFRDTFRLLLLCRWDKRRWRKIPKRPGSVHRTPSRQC
Assay: Alphascreen Surefire phospho-ERK1/2 functional assay, M1
Format: cell-based
Settings: CHO cells stably expressing human M1; Emax compared with ACh
Metric: % Emax cf. ACh, M1 (%)

1. CCON=C(C)C1CCN(C2CCCN(C(=O)OCC)CC2)CC1 (single isomer, unassigned) [1-7 Isomer 2 (racemic)]; 66

(A) CCOC(=O)N1CCC2(CC(N3CCC(C(CC)=NOC)CC3)C2)C1 (single isomer, unassigned) [2-2 Isomer 4]
(B) CCOC(=O)N1CCCC(N2CCC(C(CC)=NOC(C)C)CC2)CC1 (single isomer, unassigned) [1-12 Isomer 1 (racemic)]
[ask] Which one would you say has the larger % Emax cf. ACh, M1 value: A , or B ? Reply with the label of the item you choose.
[reply] B
(B: 98%, A: 59%)

* * *

Target: human muscarinic M4 receptor (Homo sapiens, UniProt P08173)
Construct: expressed in transfected cells
Sequence (P08173 whole entry): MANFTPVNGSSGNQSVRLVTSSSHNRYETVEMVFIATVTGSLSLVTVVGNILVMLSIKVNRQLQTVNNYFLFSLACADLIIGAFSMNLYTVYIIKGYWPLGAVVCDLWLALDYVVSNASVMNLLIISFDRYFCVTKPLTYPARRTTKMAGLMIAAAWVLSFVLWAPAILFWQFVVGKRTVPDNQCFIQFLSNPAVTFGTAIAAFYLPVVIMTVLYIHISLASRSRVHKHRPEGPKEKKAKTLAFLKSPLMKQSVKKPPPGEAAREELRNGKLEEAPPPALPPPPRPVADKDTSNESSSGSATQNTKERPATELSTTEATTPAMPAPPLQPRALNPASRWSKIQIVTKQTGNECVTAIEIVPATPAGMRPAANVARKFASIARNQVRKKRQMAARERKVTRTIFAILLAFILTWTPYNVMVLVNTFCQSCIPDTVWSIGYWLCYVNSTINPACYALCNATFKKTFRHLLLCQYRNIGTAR
Assay: Alphascreen Surefire phospho-ERK1/2 functional assay, M4
Format: cell-based
Details: CHO cells stably expressing human M4; Emax compared with ACh
Metric: % Emax cf. ACh, M4 (%)

Reference set (4 entries):
1) CCON=C(C)C1CCN(C2CCCN(C(=O)OCC)CC2)CC1 (single isomer, unassigned) [1-7 Isomer 2 (racemic)]; 62
2) CCOC(=O)N1CCCC(N2CCC(C(CC)=NOC(C)C)CC2)CC1 (single isomer, unassigned) [1-12 Isomer 1 (racemic)]; 80
3) CCCC(=NOC)C1CCN(C2CCCN(C(=O)OCC)CC2)CC1 (single isomer, unassigned) [1-3 Isomer 2 (racemic)]; 83
4) CCOC(=O)N1CCC2(CC(N3CCC(C(CC)=NOC)CC3)C2)C1 (single isomer, unassigned) [2-2 Isomer 3]; 67

(I) CCOC(=O)N1CCCC(N2CCC(C(=NOC)C(C)C)CC2)CC1 (single isomer, unassigned) [1-5 Isomer 2 (racemic)]
(II) CCOC(=O)N1CCC[C@H](N2CCC(C(C)=NOC)CC2)CC1 (single isomer, unassigned) [(S)-1-1 Isomer 2]
(III) CCOC(=O)N1CCCC(N2CCC(C(C)=NOC(C)C)CC2)CC1 (single isomer, unassigned) [1-9 Isomer 1 (racemic)]
[ask] Sort the 3 compounds by % Emax cf. ACh, M4; largest first, smallest last. Reply format: the labels, ordered as requested.
[reply] I, II, III
(I: 104%, II: 62%, III: 0%)

(A) CCCON=C(CC)C1CCN(C2CCCN(C(=O)OCC)CC2)CC1 (single isomer, unassigned) [1-11 Isomer 1 (racemic)]
(B) CCOC(=O)N1CCC2(CC(N3CCC(C(CC)=NOC)CC3)C2)C1 (single isomer, unassigned) [2-2 Isomer 4]
[ask] Which one would you say has the larger % Emax cf. ACh, M4 value: A , or B ? Reply with the label of the item you choose.
[reply] B

(I) CCOC(=O)N1CCCC(N2CCC(C(CC)=NOC(C)C)CC2)CC1 (single isomer, unassigned) [1-12 Isomer 2 (racemic)]
(II) CCCON=C(C)C1CCN(C2CCCN(C(=O)OCC)CC2)CC1 (single isomer, unassigned) [1-8 Isomer 2 (racemic)]
[ask] Of I and II , whose reported % Emax cf. ACh, M4 is numerically smaller? Reply with the label of the item you choose.
[reply] II

* * *

Target: UniProt:P11229
Assay: Alphascreen Surefire phospho-ERK1/2 functional assay, M1
Assay type: cell-based
Details: CHO cells stably expressing human M1; Emax compared with ACh
Metric: % Emax cf. ACh, M1 (%)

1) CCCON=C(CC)C1CCN(C2CCCN(C(=O)OCC)CC2)CC1 (single isomer, unassigned) [1-11 Isomer 2 (racemic)]; 99
2) CCOC(=O)N1CCCC(N2CCC(C(CC)=NOC)CC2)CC1 (single isomer, unassigned) [1-2 Isomer 1 (racemic)]; 58
3) CCOC(=O)N1CCCC(N2CCC(C(=NOC)C(C)C)CC2)CC1 (single isomer, unassigned) [1-4 Isomer 2 (racemic)]; 95
4) CCOC(=O)N1CCC[C@H](N2CCC(C(C)=NOC)CC2)CC1 (single isomer, unassigned) [(S)-1-1 Isomer 2]; 49
5) CCCON=C(C)C1CCN(C2CCCN(C(=O)OCC)CC2)CC1 (single isomer, unassigned) [1-8 Isomer 2 (racemic)]; 85
6) CCCC(=NOC)C1CCN(C2CCCN(C(=O)OCC)CC2)CC1 (single isomer, unassigned) [1-3 Isomer 2 (racemic)]; 92

(I) CCOC(=O)N1CCCC(N2CCC(C(CC)=NOC)CC2)CC1 (single isomer, unassigned) [1-2 Isomer 2 (racemic)]
(II) CCOC(=O)N1CCCC(N2CCC(C(C)=NOC(C)C)CC2)CC1 (single isomer, unassigned) [1-9 Isomer 2 (racemic)]
[ask] Of I and II , whose reported % Emax cf. ACh, M1 is numerically smaller? Reply with the label of the item you choose.
[reply] II
(II: 46%, I: 83%)

* * *

Target: human muscarinic M4 receptor (Homo sapiens, UniProt P08173)
Construct: expressed in transfected cells
Assay: Alphascreen Surefire phospho-ERK1/2 functional assay, M4
Assay type: cell-based
Settings: CHO cells stably expressing human M4; Emax compared with ACh
Metric: % Emax cf. ACh, M4 (%)

1. CCOC(=O)N1CCCC(N2CCC(C(=NOC)C(C)C)CC2)CC1 (single isomer, unassigned) [1-4 Isomer 2 (racemic)]; 107
2. CCOC(=O)N1CCC[C@H](N2CCC(C(CC)=NOC)CC2)CC1 (single isomer, unassigned) [(S)-1-2 Isomer 2]; 81
3. CCCON=C(CC)C1CCN(C2CCCN(C(=O)OCC)CC2)CC1 (single isomer, unassigned) [1-11 Isomer 2 (racemic)]; 97
4. CCOC(=O)N1CCCC(N2CCC(C(CC)=NOC)CC2)CC1 (single isomer, unassigned) [1-2 Isomer 2 (racemic)]; 94
